Protocol text: in vitro
Assay type: in vitro ADME
Test settings: microsomes, pH 7.4; human; 1 μM compound, 0.5 mg/mL protein; read-out: Liver Microsomal Stability t1/2
Outcome measure: half-life at 1 μM (h)
One number for each entry, in h.

[[record]]
smiles_representation = "O=C(N[C@H]1N=C(c2ccccc2)c2ccccc2NC1=O)c1c(-c2ccccc2)nc2cccnn12"
outcome_measure = "half-life at 1 μM"
result_unit = "h"
measured_number = 68.8

[[record]]
smiles_representation = "Cc1ccc(-c2nn3cccnc3c2C(=O)N[C@H]2N=C(c3ccccc3)c3cccc(F)c3NC2=O)cn1"
outcome_measure = "half-life at 1 μM"
result_unit = "h"
measured_number = 13.4

[[record]]
smiles_representation = "CN1C[C@H]2C[C@@H]1CN2c1ccc2nc(-c3ccccc3)c(C(=O)N[C@H]3N=C(c4ccccc4)c4cccc(F)c4NC3=O)n2n1"
outcome_measure = "half-life at 1 μM"
result_unit = "h"
measured_number = 0.488


Next up:
Note to self: half-life at 1 μM recorded for O=C(N[C@H]1N=C(c2ccccc2)c2cccc(F)c2NC1=O)c1c(-c2c(F)cccc2F)nn2cccnc12 was 9.07

====

Protocol text: in vivo
Assay type: in vivo
Test settings: in vivo; male Beagle dog, PO 3 or 4 mg/kg; read-out: PO t1/2 (converted)
Provide the reported half-life of each item.
Put down the number, then write its unit next to it.

Below: 3 compounds and their reported half-life.
[[record]]
smiles_representation = "Cc1ccc(-c2nn3cccnc3c2C(=O)N[C@H]2N=C(c3ccccc3)c3cccc(F)c3NC2=O)cn1"
outcome_measure = "half-life"
result = "16.1 h"

[[record]]
smiles_representation = "Cc1nc2ccc(Cl)nn2c1C(=O)N[C@H]1N=C(c2ccccc2)c2cccc(F)c2NC1=O"
outcome_measure = "half-life"
result = "19.2 h"

[[record]]
smiles_representation = "O=C(N[C@H]1N=C(c2ccccc2)c2ccccc2NC1=O)c1c(-c2ccccc2F)nn2cccnc12"
outcome_measure = "half-life"
result = "11.1 h"


Next up:
Note to self: half-life recorded for CCc1ccc(-c2nn3cccnc3c2C(=O)N[C@H]2N=C(c3ccccc3)c3cccc(F)c3NC2=O)cn1 was 6.1 h

====

Protocol text: in vitro
Assay type: in vitro ADME
Test settings: microsomes, pH 7.4; dog; 1 μM compound, 0.5 mg/mL protein; read-out: Liver Microsomal Stability t1/2
Outcome measure: log10(half-life at 1 μM) (log10 of the value in h)
Units before log transform: h; reported quantity: half-life at 1 μM; transform: log10.

Below: 2 compounds and their reported log10(half-life at 1 μM).
[[record]]
smiles_representation = "COc1ccc(-c2nn3cccnc3c2C(=O)N[C@H]2N=C(c3ccccc3)c3ccccc3NC2=O)c(F)c1"
outcome_measure = "log10(half-life at 1 μM)"
measured_number = 0.12

[[record]]
smiles_representation = "CNc1ccc(-c2nn3cccnc3c2C(=O)N[C@H]2N=C(c3ccccc3)c3ccccc3NC2=O)cc1"
outcome_measure = "log10(half-life at 1 μM)"
measured_number = 0.10


Would you mind giving log10(half-life at 1 μM) for every compound in the list below?
1. O=C(N[C@H]1N=C(c2ccccc2)c2ccccc2NC1=O)c1c(-c2ccc(F)cc2F)nn2cccnc12
2. CCc1ccc(-c2nn3cccnc3c2C(=O)N[C@H]2N=C(c3ccccc3)c3cccc(F)c3NC2=O)c(C)n1
3. Cc1cncc(-c2nn3cccnc3c2C(=O)N[C@H]2N=C(c3ccccc3)c3cccc(F)c3NC2=O)c1
4. Cc1ccc2nc(-c3ccncc3F)c(C(=O)N[C@H]3N=C(c4ccccc4)c4cccc(F)c4NC3=O)n2n1
5. COc1ccc2nc(-c3ccncc3F)c(C(=O)N[C@H]3N=C(c4ccccc4)c4cccc(F)c4NC3=O)n2n1
6. O=C(N[C@H]1N=C(c2ccccc2)c2ccccc2NC1=O)c1c(-c2cncc(Cl)c2)nn2cccnc12

[0.59, 0.14, 0.55, 0.14, 0.87, 0.00]

Would you mind giving log10(half-life at 1 μM) for every compound in the list below?
1. O=C(N[C@H]1N=C(c2ccccc2)c2cccc(F)c2NC1=O)c1c(-c2c(F)cccc2F)nn2cccnc12
2. O=C(N[C@H]1N=C(c2ccccc2)c2ccccc2NC1=O)c1c(-c2ccccc2)nc2cccnn12
3. Cn1ncc2cc(-c3nn4cccnc4c3C(=O)N[C@H]3N=C(c4ccccc4)c4cccc(F)c4NC3=O)ccc21

1: 1.10; 2: 0.05; 3: 0.40

Would you mind giving log10(half-life at 1 μM) for every compound in the list below?
1. O=C(N[C@H]1N=C(c2ccccc2)c2ccccc2NC1=O)c1c(-c2ccc(NC3CC3)nc2F)nn2cccnc12
2. CCc1ccc(-c2nn3cccnc3c2C(=O)N[C@H]2N=C(c3ccccc3)c3ccccc3NC2=O)cn1
3. COc1ccc2nc(-c3ccccc3)c(C(=O)N[C@H]3N=C(c4ccccc4)c4cccc(F)c4NC3=O)n2n1
4. COc1ccc2nc(-c3cncc(C)c3)c(C(=O)N[C@H]3N=C(c4ccccc4)c4cccc(F)c4NC3=O)n2n1
5. Cc1ccc2nc(-c3cccnc3)c(C(=O)N[C@H]3N=C(c4ccccc4)c4cccc(F)c4NC3=O)n2n1
6. Cc1ccc2nc(-c3ccccc3)c(C(=O)N[C@H]3N=C(c4ccccc4)c4cccc(F)c4NC3=O)n2n1
7. O=C(N[C@H]1N=C(c2ccccc2)c2ccccc2NC1=O)c1c(-c2ccccc2)nn2cccnc12

-0.43
0.12
0.60
0.38
0.58
1.37
0.59

====

Provide the reported Cmax of each item.
Protocol text: in vivo
Format: in vivo, rat (Sprague Dawley)
Test settings: Sprague Dawley, in vivo; male SD rat, IV 1 mg/kg / PO 10 mg/kg study
Put down the number, then write its unit next to it.

[[record]]
smiles_representation = "O=C(N[C@H]1N=C(c2ccccc2)c2cccc(F)c2NC1=O)c1c(-c2cncc(Cl)c2)nn2cccnc12"
result = "785 ng/mL"


Would you mind giving Cmax for every molecule in the list below?
1. O=C(N[C@H]1N=C(c2ccccc2)c2ccccc2NC1=O)c1c(-c2ccccc2F)nn2cccnc12
2. Cc1ccc(-c2nn3cccnc3c2C(=O)N[C@H]2N=C(c3ccccc3)c3cccc(F)c3NC2=O)cn1
3. CCc1ccc(-c2nn3cccnc3c2C(=O)N[C@H]2N=C(c3ccccc3)c3cccc(F)c3NC2=O)cn1
4. CCc1ccc(-c2nn3cccnc3c2C(=O)N[C@H]2N=C(c3ccccc3)c3cccc(F)c3NC2=O)c(C)n1

1: 2410 ng/mL; 2: 2040 ng/mL; 3: 1420 ng/mL; 4: 912 ng/mL

====

Protocol text: in vivo
Format: in vivo, rat (Sprague Dawley)
Test settings: Sprague Dawley, in vivo; male SD rat, PO 10 mg/kg; read-out: PO AUClast
Provide the reported AUC(0-t) of each item.
Numbers only, in ng·h/mL.

[[record]]
smiles_representation = "Cc1ccc(-c2nn3cccnc3c2C(=O)N[C@H]2N=C(c3ccccc3)c3cccc(F)c3NC2=O)cn1"
outcome_measure = "AUC(0-t)"
result_unit = "ng·h/mL"
measured_number = 20000

[[record]]
smiles_representation = "CCc1ccc(-c2nn3cccnc3c2C(=O)N[C@H]2N=C(c3ccccc3)c3cccc(F)c3NC2=O)c(C)n1"
outcome_measure = "AUC(0-t)"
result_unit = "ng·h/mL"
measured_number = 3660

[[record]]
smiles_representation = "CCc1ccc(-c2nn3cccnc3c2C(=O)N[C@H]2N=C(c3ccccc3)c3cccc(F)c3NC2=O)cn1"
outcome_measure = "AUC(0-t)"
result_unit = "ng·h/mL"
measured_number = 14700

[[record]]
smiles_representation = "O=C(N[C@H]1N=C(c2ccccc2)c2ccccc2NC1=O)c1c(-c2ccccc2F)nn2cccnc12"
outcome_measure = "AUC(0-t)"
result_unit = "ng·h/mL"
measured_number = 34200


Note to self: AUC(0-t) recorded for O=C(N[C@H]1N=C(c2ccccc2)c2cccc(F)c2NC1=O)c1c(-c2cncc(Cl)c2)nn2cccnc12 was 11100

====

Protocol text: in vitro
Format: in vitro ADME
Test settings: microsomes, pH 7.4; rat; 1 μM compound, 0.5 mg/mL protein; read-out: Liver Microsomal Stability t1/2
Outcome measure: half-life at 1 μM (h)
Give bare numbers, in h.

Below: 2 compounds and their reported half-life at 1 μM.
[[record]]
compound = "O=C(N[C@H]1N=C(c2ccccc2)c2cccc(F)c2NC1=O)c1c(-c2ccccc2)nc2cccnn12 [Example 107]"
measured_number = 1.46

[[record]]
compound = "COc1ccc2nc(-c3ccccc3F)c(C(=O)N[C@H]3N=C(c4ccccc4)c4cccc(F)c4NC3=O)n2n1 [Example 115]"
measured_number = 2.42


Would you mind giving half-life at 1 μM for every compound in the list below?
1. Cn1ncc2cc(-c3nn4cccnc4c3C(=O)N[C@H]3N=C(c4ccccc4)c4cccc(F)c4NC3=O)ccc21 [Example 63]
2. O=C(N[C@H]1N=C(c2ccccc2)c2cccc(F)c2NC1=O)c1c(-c2ccccc2F)nc2cccnn12 [Example 18]
3. CCc1ccc(-c2nn3cccnc3c2C(=O)N[C@H]2N=C(c3ccccc3)c3cccc(F)c3NC2=O)cn1 [Example 55]
4. CN1C[C@H]2C[C@@H]1CN2c1ccc2nc(-c3ccccc3)c(C(=O)N[C@H]3N=C(c4ccccc4)c4cccc(F)c4NC3=O)n2n1 [Example 81]

[3.78, 0.838, 1.01, 1.49]

Would you mind giving half-life at 1 μM for every compound in the list below?
1. O=C(N[C@H]1N=C(c2ccccc2)c2ccccc2NC1=O)c1c(-c2ccc(NC3CC3)nc2F)nn2cccnc12 [Example 48]
2. Cc1ccnc2c(C(=O)N[C@H]3N=C(c4ccccc4)c4ccccc4NC3=O)c(-c3ccccc3F)nn12 [Example 37]
3. O=C(N[C@H]1N=C(c2ccccc2)c2ccccc2NC1=O)c1c(-c2ccccc2F)nn2ccc(N3CCOCC3)nc12 [Example 39]
4. O=C(N[C@H]1N=C(c2ccccc2)c2cccc(F)c2NC1=O)c1c(-c2cc(F)ccc2F)nn2cccnc12 [Example 7]
5. Cc1ccc2nc(-c3ccc(F)cc3F)c(C(=O)N[C@H]3N=C(c4ccccc4)c4cccc(F)c4NC3=O)n2n1 [Example 91]
6. O=C(N[C@H]1N=C(c2ccccc2)c2cccc(F)c2NC1=O)c1c(-c2ccc(F)cc2F)nc2cccnn12 [Example 89]
7. Cc1ccc2nc(-c3ccc(F)cn3)c(C(=O)N[C@H]3N=C(c4ccccc4)c4cccc(F)c4NC3=O)n2n1 [Example 78]

1. 3.62
2. 0.842
3. 0.538
4. 2.08
5. 0.61
6. 3.1
7. 0.923

Note to self: half-life at 1 μM recorded for CN1C[C@@H]2C[C@H]1CN2c1ccc2nc(-c3ccccc3)c(C(=O)N[C@H]3N=C(c4ccccc4)c4cccc(F)c4NC3=O)n2n1 [Example 80] was 1.9
